Origin of values: paper PMC10364322

test system: hiPSC-CMs (iCell-Cardiomyocytes^2); conditions: 1 µM, 48h
propertyMeasured: Beating below threshold, number of observations/total well numbers

{"chemicalStructure": "CC(C)(Sc1cc(C(C)(C)C)c(O)c(C(C)(C)C)c1)Sc1cc(C(C)(C)C)c(O)c(C(C)(C)C)c1", "experimentalSystem": "hiPSC-CMs (iCell-Cardiomyocytes^2)", "observed": "0/4"}
{"chemicalStructure": "C#Cc1cccc(Nc2ncnc3cc(OCCOC)c(OCCOC)cc23)c1", "experimentalSystem": "hiPSC-CMs (iCell-Cardiomyocytes^2)", "observed": "0/5"}
{"chemicalStructure": "COc1cc2c(Nc3ccc(Br)cc3F)ncnc2cc1OCC1CCN(C)CC1", "experimentalSystem": "hiPSC-CMs (iCell-Cardiomyocytes^2)", "observed": "0/5"}
{"chemicalStructure": "COc1cccc2c1C(=O)c1c(O)c3c(c(O)c1C2=O)C[C@@](O)(C(=O)CO)C[C@@H]3O[C@H]1C[C@H](N)[C@H](O)[C@H](C)O1", "experimentalSystem": "hiPSC-CMs (iCell-Cardiomyocytes^2)", "observed": "0/5"}
